- Test system: Genome polyprotein (dengue virus type 2) (UniProt P29990)
- Test details: Inhibition of Dengue virus serotype 2 NS2B-NS3 protease transfected in human HeLa cells at 12.5 uM measured after 24 hrs by Renilla-luciferase reporter gene assay relative to control
- Type: cell-based
Overview of recorded inhibition for various compounds
// units = %; emit number, no label

In the examples that follow, each entry is paired with its recorded inhibition.
>  <Molecular string>
CCCCCC(=O)N[C@H](C(=O)NCCN)c1ccc(OCc2ccccc2)cc1

>  <Property label>
inhibition

>  <Unit symbol>
%

>  <Assay value>
44

$$$$
>  <Molecular string>
CCCCCC(=O)N[C@H](C(=O)Nc1ccc2[nH]ncc2c1)c1ccc(OCc2ccccc2)cc1

>  <Property label>
inhibition

>  <Unit symbol>
%

>  <Assay value>
65.4

$$$$

Value (inhibition, Genome polyprotein (dengue virus type 2) (UniProt P29990)) for record CCCCC(=O)N[C@H](C(=O)NCc1ccc(NC(=N)N)cc1)c1ccc(OCc2ccccc2)cc1.O=C(O)C(F)(F)F = 69.4

All figures here come from ChEMBL document CHEMBL4619777.
